- Tested on: Pseudomonas aeruginosa
- assay: Antimicrobial activity against efflux pump mexAB-oprM-deficient Pseudomonas aeruginosa PAO1 after 16 to 20 hrs by broth microdilution method
- Type: functional
measure: MIC

State, in one line, measured MIC of O=C(O)C(F)(F)F.c1cc2cc(-c3ccc(-c4cc5ccc(C6=NCCN6)cc5[nH]4)cc3)[nH]c2cc1C1=NCCN1
1.25 µg/mL

// fetch MIC given entry O=C(O)C(F)(F)F.c1cc2cc(-c3ccc(-c4cc5ccc(C6=NCCN6)cc5[nH]4)o3)[nH]c2cc1C1=NCCN1
> 80 µg/mL

Look up and report measured MIC for this entry: N/C(=N\O)c1ccc2cc(-c3ccc(-c4cc5ccc(/C(N)=N\O)cc5[nH]4)cc3)[nH]c2c1
> 80 µg/mL

Please list MIC recorded for the compound CC(=O)O.c1cc2cc(-c3ccc(-c4cc5ccc(C6=NCCN6)cc5[nH]4)nc3)[nH]c2cc1C1=NCCN1
> 80 µg/mL

Let me know recorded MIC for NCc1ccc2cc(-c3ccc(-c4cc5ccc(CN)cc5[nH]4)cc3)[nH]c2c1.O=C(O)C(F)(F)F , thanks.
40 µg/mL

Give recorded MIC. CCOC(=N)c1ccc2cc(-c3ccc(-c4cc5ccc(C(=N)OCC)cc5[nH]4)cc3)[nH]c2c1.Cl
> 80 µg/mL

====

- Tested on: Enterococcus faecalis
- assay: Antimicrobial activity Enterococcus faecalis ATCC 29212 after 16 to 20 hrs by broth microdilution method
- Format: functional
Consider the cut-off 0.6 µg/mL. If the recorded MIC is strictly smaller, the label is 1 (yes); if not, the label is 0 (no).

Does the reported MIC of CC(=O)O.c1cc2cc(-c3ccc(-c4cc5ccc(C6=NCCCN6)cc5[nH]4)nc3)[nH]c2cc1C1=NCCCN1 stay below 0.6 µg/mL?
0 (no)

Threshold test, MIC < 0.6 µg/mL: COC1CN=C(c2ccc3cc(-c4ccc(-c5cc6ccc(C7=NCC(OC)CN7)cc6[nH]5)cc4)[nH]c3c2)NC1.O=C(O)C(F)(F)F (centres undefined)
1 (yes)

# strict comparison: is reported MIC < 0.6 µg/mL? input = NC(=O)c1ccc2cc(-c3ccc(-c4cc5ccc(C(N)=O)cc5[nH]4)cc3)[nH]c2c1
0 (no)

For this compound, is MIC lower than 0.6 µg/mL? c1cc2cc(CCCc3cc4ccc(C5=NCCCN5)cc4[nH]3)[nH]c2cc1C1=NCCCN1
0 (no)

Does the reported MIC of Cl.N=C(N)c1ccc2cc(-c3ccc(-c4cc5ccc(C(=N)N)cc5[nH]4)cc3)[nH]c2c1 stay below 0.6 µg/mL?
1 (yes)

Hi there! Is MIC for O=C(O)C(F)(F)F.c1cc2cc(-c3ccc(-c4cc5ccc(C6=NCCN6)cc5[nH]4)cc3)[nH]c2cc1C1=NCCN1 below 0.6 µg/mL, do you know?
1 (yes)

MIC under 0.6 µg/mL? Item: Cl.N/N=C(/N)c1ccc2cc(-c3ccc(-c4cc5ccc(/C(N)=N\N)cc5[nH]4)cc3)[nH]c2c1
0 (no)

Does the reported MIC of c1cc2cc(CCCCc3cc4ccc(C5=NCCCN5)cc4[nH]3)[nH]c2cc1C1=NCCCN1 stay below 0.6 µg/mL?
0 (no)

Answer whether the compound NCc1ccc2cc(-c3ccc(-c4cc5ccc(CN)cc5[nH]4)cc3)[nH]c2c1.O=C(O)C(F)(F)F has MIC strictly less than 0.6 µg/mL
0 (no)
